# key: entry, value: DAR
# Type: physicochemical
# reported conditions: ADC with Her2 antibody, RP-HPLC-MS
*1 amine or outer side, *2 acyl side, *3 side chain or, on linkers, in order; H or OH if unused. Where a SMILES comes first, the peptide text is derived from it. [ ]: non-standard residue; d: D form. The star is where a group is joined. ξ: configuration not given here. Dolaproine = CO[C@@H]([C@@H]1CCCN1)[C@@H](C)C(=O)O; X2 = CO[C@@H]([C@H]1CCCN1[*:1])[C@@H](C)C(=O)[*:2]; ξDil = CC[C@H](C)C([C@@H](CC(=O)[*:2])OC)N(C)[*:1]; Hexanoyl(6-maleimido) = O=C1C=CC(=O)N1CCCCCC(=O)*; Propanoyl(3-maleimido) = O=C1C=CC(=O)N1CCC(=O)*; Dil = CC[C@H](C)[C@H](NC)[C@@H](CC(=O)O)OC; PABC = O=C(OCc1ccc(N[*:1])cc1)[*:2]; X3 = C[C@@H](N*)[C@@H](O)c1ccccc1; NMeV = CN[C@H](C(=O)O)C(C)C
// response body must contain only the number

molecule	DAR
C=C1C[C@@H]2CC[C@@]34C[C@H]5OC6C(O[C@H]7CC[C@H](CC(=O)C[C@@H]8[C@@H](OC)[C@@H](C[C@H](O)CNC(=O)CNC(=O)[C@H](Cc9ccccc9)NC(=O)CNC(=O)CNC(=O)CCCCCN9C(=O)C=CC9=O)O[C@H]8C[C@H]8O[C@@H](CC[C@@H]1O2)C[C@@H](C)C8=C)O[C@@H]7[C@@H]6O3)[C@H]5O4 [Comparative Example 4, reference compound]	3.01
CC[C@H](C)C([C@@H](CC(=O)N1CCC[C@@H]1[C@H](OC)[C@@H](C)C(=O)N[C@H](C)[C@@H](O)c1ccccc1)OC)N(C)C(=O)[C@@H](NC(=O)[C@H](C(C)C)N(C)C(=O)OCc1ccc(NC(=O)CNC(=O)[C@H](Cc2ccccc2)NC(=O)CNC(=O)CNC(=O)CCN2C(=O)C=CC2=O)cc1)C(C)C (some centres unmarked) [Comparative Example 8, reference compound] ({Propanoyl(3-maleimido)}-GGFG[PABC][NMeV]V[ξDil][X2]-X3)	2.57
CC[C@H](C)[C@@H]([C@@H](CC(=O)N1CCC[C@H]1[C@H](OC)[C@@H](C)C(=O)N[C@H](C)[C@@H](O)c1ccccc1)OC)N(C)C(=O)[C@@H](NC(=O)[C@H](C(C)C)N(C)C(=O)OCc1ccc(NC(=O)CNC(=O)[C@H](Cc2ccccc2)NC(=O)CNC(=O)CNC(=O)CCCCCN2C(=O)C=CC2=O)cc1)C(C)C [Comparative Example 1, reference compound] ({Hexanoyl(6-maleimido)}-GGFG[PABC][NMeV]V[Dil][Dolaproine]-X3)	1.03
C=C1C[C@@H]2CC[C@@]34C[C@H]5OC6C(O[C@H]7CC[C@H](CC(=O)C[C@@H]8[C@@H](OC)[C@@H](C[C@H](O)CNC(=O)CNC(=O)[C@H](Cc9ccccc9)NC(=O)CNC(=O)CN9CCOCCOCCN(C(=O)CCCCCN%10C(=O)C=CC%10=O)CCOCCOCC9)O[C@H]8C[C@H]8O[C@@H](CC[C@@H]1O2)C[C@@H](C)C8=C)O[C@@H]7[C@@H]6O3)[C@H]5O4 [Example 40]	3.78

With those in mind, consider the next molecule.
Prompt: Output measured DAR for this item: C=C1C[C@@H]2CC[C@@]34C[C@H]5OC6C(O[C@H]7CC[C@H](CC(=O)C[C@@H]8[C@@H](OC)[C@@H](C[C@H](O)CNC(=O)CNC(=O)[C@H](Cc9ccccc9)NC(=O)CNC(=O)CNC(=O)CN9CCOCCOCCN(C(=O)CCCCCN%10C(=O)C=CC%10=O)CCOCCOCC9)O[C@H]8C[C@H]8O[C@@H](CC[C@@H]1O2)C[C@@H](C)C8=C)O[C@@H]7[C@@H]6O3)[C@H]5O4 [Example 39]
Response: 4.30

----------
# key: entry, value: Polymer content (%)
# assay notes: Polymer (high molecular component) content of antibody-drug conjugates by SE-HPLC
# Format: physicochemical
# reported conditions: ADC with Her2 antibody
*1 amine or outer side, *2 acyl side, *3 side chain or, on linkers, in order; H or OH if unused. Where a SMILES comes first, the peptide text is derived from it. [ ]: non-standard residue; d: D form. The star is where a group is joined. MaleimidoPEG4propanoyl = O=C1C=CC(=O)N1CCOCCOCCOCCOCCC(=O)*; X2 = CO[C@@H]([C@H]1CCCN1[*:1])[C@@H](C)C(=O)[*:2]; Propanoyl(3-maleimido) = O=C1C=CC(=O)N1CCC(=O)*; Dil = CC[C@H](C)[C@H](NC)[C@@H](CC(=O)O)OC; X1 = O=C(CN1CCOCCN([*:1])CCOCC1)[*:2]; PABC = O=C(OCc1ccc(N[*:1])cc1)[*:2]; X3 = C[C@@H](N*)[C@@H](O)c1ccccc1; NMeV = CN[C@H](C(=O)O)C(C)C
Only the number, expressed in %, is required.

Prompt: Output measured Polymer content (%) for this item: C=C1C[C@@H]2CC[C@@]34C[C@H]5OC6C(O[C@H]7CC[C@H](CC(=O)C[C@@H]8[C@@H](OC)[C@@H](C[C@H](O)CNC(=O)CNC(=O)[C@H](Cc9ccccc9)NC(=O)CNC(=O)CNC(=O)CN9CCOCCOCCN(C(=O)CCCC%10C(=O)C=CC%10=O)CCOCCOCC9)O[C@H]8C[C@H]8O[C@@H](CC[C@@H]1O2)C[C@@H](C)C8=C)O[C@@H]7[C@@H]6O3)[C@H]5O4
Response: 1.52

Prompt: Output measured Polymer content (%) for this item: CC[C@H](C)[C@@H]([C@@H](CC(=O)N1CCC[C@@H]1[C@H](OC)[C@@H](C)C(=O)N[C@H](C)[C@@H](O)c1ccccc1)OC)N(C)C(=O)[C@@H](NC(=O)[C@H](C(C)C)N(C)C(=O)OCc1ccc(NC(=O)CNC(=O)[C@H](Cc2ccccc2)NC(=O)CNC(=O)CN2CCOCCN(C(=O)CCN3C(=O)C=CC3=O)CCOCC2)cc1)C(C)C [Example 86] ({Propanoyl(3-maleimido)}-[X1]GFG[PABC][NMeV]V[Dil][X2]-X3)
Response: 0.97

Prompt: Output measured Polymer content (%) for this item: CC[C@H](C)[C@@H]([C@@H](CC(=O)N1CCC[C@@H]1[C@H](OC)[C@@H](C)C(=O)N[C@H](C)[C@@H](O)c1ccccc1)OC)N(C)C(=O)[C@@H](NC(=O)[C@H](C(C)C)N(C)C(=O)OCc1ccc(NC(=O)CNC(=O)[C@H](Cc2ccccc2)NC(=O)CNC(=O)CNC(=O)CN2CCOCCN(C(=O)CCOCCOCCOCCOCCN3C(=O)C=CC3=O)CCOCC2)cc1)C(C)C [Example 85] (MaleimidoPEG4propanoyl-[X1]GGFG[PABC][NMeV]V[Dil][X2]-X3)
Response: 1.43

----------
# assay notes: Stability (placement) test of ADCs at 40° C. in dark for 14 days, DAR and polymer content
# Format: physicochemical
# reported conditions: Day 7, 40° C. in dark
*1 amine or outer side, *2 acyl side, *3 side chain or, on linkers, in order; H or OH if unused. Where a SMILES comes first, the peptide text is derived from it. [ ]: non-standard residue; d: D form. The star is where a group is joined. X2 = CO[C@@H]([C@H]1CCCN1[*:1])[C@@H](C)C(=O)[*:2]; Propanoyl(3-maleimido) = O=C1C=CC(=O)N1CCC(=O)*; Dil = CC[C@H](C)[C@H](NC)[C@@H](CC(=O)O)OC; X1 = O=C(CN1CCOCCN([*:1])CCOCC1)[*:2]; PABC = O=C(OCc1ccc(N[*:1])cc1)[*:2]; X3 = C[C@@H](N*)[C@@H](O)c1ccccc1; NMeV = CN[C@H](C(=O)O)C(C)C
DAR under 4 gets y, anything at or over 4 gets n.

Solved cases (3 shown):
compound	class label
C=C1C[C@@H]2CC[C@@]34C[C@H]5OC6C(O[C@H]7CC[C@H](CC(=O)C[C@@H]8[C@@H](OC)[C@@H](C[C@H](O)CNC(=O)CNC(=O)[C@H](Cc9ccccc9)NC(=O)CNC(=O)CNC(=O)CN9CCOCCOCCN(C(=O)CCCCCN%10C(=O)C=CC%10=O)CCOCCOCC9)O[C@H]8C[C@H]8O[C@@H](CC[C@@H]1O2)C[C@@H](C)C8=C)O[C@@H]7[C@@H]6O3)[C@H]5O4	n
C=C1C[C@@H]2CC[C@@]34C[C@H]5OC6C(O[C@H]7CC[C@H](CC(=O)C[C@@H]8[C@@H](OC)[C@@H](C[C@H](O)CNC(=O)CNC(=O)[C@H](Cc9ccccc9)NC(=O)CNC(=O)CN9CCOCCOCCN(C(=O)CCCCCN%10C(=O)C=CC%10=O)CCOCCOCC9)O[C@H]8C[C@H]8O[C@@H](CC[C@@H]1O2)C[C@@H](C)C8=C)O[C@@H]7[C@@H]6O3)[C@H]5O4	y
CC[C@H](C)[C@@H]([C@@H](CC(=O)N1CCC[C@@H]1[C@H](OC)[C@@H](C)C(=O)N[C@H](C)[C@@H](O)c1ccccc1)OC)N(C)C(=O)[C@@H](NC(=O)[C@H](C(C)C)N(C)C(=O)OCc1ccc(NC(=O)CNC(=O)[C@H](Cc2ccccc2)NC(=O)CNC(=O)CN2CCOCCN(C(=O)CCN3C(=O)C=CC3=O)CCOCC2)cc1)C(C)C [Example 86] ({Propanoyl(3-maleimido)}-[X1]GFG[PABC][NMeV]V[Dil][X2]-X3)	n

Next:
Prompt: Regarding CCc1c2c(nc3ccc(O)cc13)-c1cc3c(c(=O)n1C2)CCC(=O)[C@@]3(CC)OC(=O)N(C)CCN(C)C(=O)COCNC(=O)CNC(=O)[C@H](Cc1ccccc1)NC(=O)CNC(=O)CNC(=O)CN1CCOCCN(C(=O)CCN2C(=O)C=CC2=O)CCOCC1 , kindly confirm whether its DAR is beneath 4.
Response: n

Origin of values: patent US20240293570A1
